tested_system: MRFAP1
method_description: reporter assay of Huesken 2005
measurement_context: siRNA
Oligonucleotides are written 5' to 3', each unit as a sugar letter and its base; * is a phosphorothioate linkage, no mark a phosphodiester; rarer units and linkages stand in square brackets, end groups in braces. Plain capitals give the bases only. d = 2'-deoxy (DNA); r = 2'-OH (RNA)
Rule: normalised inhibition (eCFP-eYFP dual reporter) under 60% gives NOT MET, otherwise MET.

Past entries and their recorded results:
substance | label_value
sense rArArCrUrUrUrGrGrGrUrCrCrCrUrGrUrGrArCdTdT / antisense rGrUrCrArCrArGrGrGrArCrCrCrArArArGrUrUdCdA | NOT MET
sense rGrArGrCrCrGrUrCrCrGrCrGrGrUrUrUrCrCrAdTdT / antisense rUrGrGrArArArCrCrGrCrGrGrArCrGrGrCrUrCdAdC | MET
sense rCrArArArArCrCrCrUrUrArCrCrArUrGrUrUrGdTdT / antisense rCrArArCrArUrGrGrUrArArGrGrGrUrUrUrUrGdAdC | MET
sense rGrGrArGrUrUrGrGrArGrCrUrCrArCrCrGrCrCdTdT / antisense rGrGrCrGrGrUrGrArGrCrUrCrCrArArCrUrCrCdAdA | NOT MET
sense rArArArArUrArArCrUrUrUrGrArUrUrUrGrGrAdTdT / antisense rUrCrCrArArArUrCrArArArGrUrUrArUrUrUrUdCdC | MET

Request: Could you please find out whether sense rArArGrGrCrCrGrArCrGrArGrArArGrGrCrGrCdTdT / antisense rGrCrGrCrCrUrUrCrUrCrGrUrCrGrGrCrCrUrUdCdT has normalised inhibition (eCFP-eYFP dual reporter) that meets 60% or exceeds it?
Result: MET

Request: Please do the same for sense rUrCrCrArGrArUrCrArArGrArCrGrCrArGrGrUdTdT / antisense rArCrCrUrGrCrGrUrCrUrUrGrArUrCrUrGrGrAdTdC as well.
Result: NOT MET

Request: Please do the same for sense rUrGrUrUrCrGrUrCrUrGrUrArCrArArGrUrUrGdTdT / antisense rCrArArCrUrUrGrUrArCrArGrArCrGrArArCrAdAdG as well.
Result: MET

Request: Please do the same for sense rUrUrGrGrArArArArUrGrCrGrCrUrCrArCrArUdTdT / antisense rArUrGrUrGrArGrCrGrCrArUrUrUrUrCrCrArAdAdT as well.
Result: NOT MET

Request: Please do the same for sense rArCrUrGrArGrArCrUrUrGrGrArGrUrUrGrGrAdTdT / antisense rUrCrCrArArCrUrCrCrArArGrUrCrUrCrArGrUdGdT as well.
Result: MET

Request: Please do the same for sense rGrGrGrCrGrGrCrGrCrCrGrArGrCrCrCrCrGrCdTdT / antisense rGrCrGrGrGrGrCrUrCrGrGrCrGrCrCrGrCrCrCdGdC as well.
Result: MET

====

tested_system: NOG
method_description: reporter assay of Huesken 2005
measurement_context: siRNA
Oligonucleotides are written 5' to 3', each unit as a sugar letter and its base; * is a phosphorothioate linkage, no mark a phosphodiester; rarer units and linkages stand in square brackets, end groups in braces. Plain capitals give the bases only. d = 2'-deoxy (DNA); r = 2'-OH (RNA)
reported_endpoint: normalised inhibition (eCFP-eYFP dual reporter) (%)
Please give a number only; it is taken to be in %.

Example entries begin here.
substance | endpoint_value
sense rGrGrCrArUrGrGrUrGrUrGrCrArArGrCrCrGrUdTdT / antisense rArCrGrGrCrUrUrGrCrArCrArCrCrArUrGrCrCdCdT | 79.1
sense rCrUrGrGrCrGrGrArGrCrUrGrGrArCrCrArGrCdTdT / antisense rGrCrUrGrGrUrCrCrArGrCrUrCrCrGrCrCrArGdGdT | 58.7
sense rCrCrCrArGrCrGrArCrArArCrCrUrGrCrCrCrCdTdT / antisense rGrGrGrGrCrArGrGrUrUrGrUrCrGrCrUrGrGrGdTdG | 68.1
sense rCrArGrArCrCrCrUrArUrCrUrUrUrGrArCrCrCdTdT / antisense rGrGrGrUrCrArArArGrArUrArGrGrGrUrCrUrGdGdG | 88.8
sense rGrCrGrGrCrArGrCrGrGrCrCrGrUrCrGrGrGrGdTdT / antisense rCrCrCrCrGrArCrGrGrCrCrGrCrUrGrCrCrGrCdAdG | 70.5

Now, please, on to the next substance.
Request: Form entry - test system: NOG; read-out: normalised inhibition (eCFP-eYFP dual reporter); substance: sense rArCrUrArUrCrUrCrCrArCrArUrCrCrGrCrCrCdTdT / antisense rGrGrGrCrGrGrArUrGrUrGrGrArGrArUrArGrUdGdC
Result: 52.8

====

tested_system: CDC34
method_description: reporter assay of Huesken 2005
measurement_context: siRNA
Oligonucleotides are given in HELM: sugar(base)linkage, 5' to 3'; d 2'-deoxyribose, r ribose, m 2'-O-methylribose, p phosphate. ss, as = sense and antisense strand
reported_endpoint: normalised inhibition (eCFP-eYFP dual reporter) (%)
Please give a number only; it is taken to be in %.

substance	endpoint_value
RNA1{r(C)p.r(C)p.r(C)p.r(A)p.r(A)p.r(C)p.r(A)p.r(C)p.r(C)p.r(U)p.r(U)p.r(C)p.r(U)p.r(C)p.r(G)p.r(C)p.r(C)p.r(C)p.r(G)p.d(T)p.d(T)}|RNA2{r(C)p.r(G)p.r(G)p.r(G)p.r(C)p.r(G)p.r(A)p.r(G)p.r(A)p.r(A)p.r(G)p.r(G)p.r(U)p.r(G)p.r(U)p.r(U)p.r(G)p.r(G)p.r(G)p.d(C)p.d(T)}$$$RNA1{StrandType:ss}|RNA2{StrandType:as}$	45.9

Request: Reported normalised inhibition (eCFP-eYFP dual reporter), substance `RNA1{r(A)p.r(C)p.r(A)p.r(G)p.r(A)p.r(C)p.r(A)p.r(U)p.r(C)p.r(A)p.r(U)p.r(C)p.r(C)p.r(G)p.r(G)p.r(A)p.r(A)p.r(G)p.r(C)p.d(T)p.d(T)}|RNA2{r(G)p.r(C)p.r(U)p.r(U)p.r(C)p.r(C)p.r(G)p.r(G)p.r(A)p.r(U)p.r(G)p.r(A)p.r(U)p.r(G)p.r(U)p.r(C)p.r(U)p.r(G)p.r(U)p.d(G)p.d(T)}$$$RNA1{StrandType:ss}|RNA2{StrandType:as}$` : ____
Result: 34.9

Request: Please do the same for `RNA1{r(C)p.r(G)p.r(U)p.r(G)p.r(G)p.r(A)p.r(C)p.r(G)p.r(C)p.r(C)p.r(U)p.r(C)p.r(C)p.r(G)p.r(U)p.r(G)p.r(A)p.r(U)p.r(G)p.d(T)p.d(T)}|RNA2{r(C)p.r(A)p.r(U)p.r(C)p.r(A)p.r(C)p.r(G)p.r(G)p.r(A)p.r(G)p.r(G)p.r(C)p.r(G)p.r(U)p.r(C)p.r(C)p.r(A)p.r(C)p.r(G)p.d(T)p.d(T)}$$$RNA1{StrandType:ss}|RNA2{StrandType:as}$` as well.
Result: 79.4

Request: Please do the same for `RNA1{r(C)p.r(G)p.r(A)p.r(C)p.r(G)p.r(A)p.r(C)p.r(U)p.r(A)p.r(C)p.r(U)p.r(A)p.r(C)p.r(G)p.r(G)p.r(G)p.r(A)p.r(C)p.r(G)p.d(T)p.d(T)}|RNA2{r(C)p.r(G)p.r(U)p.r(C)p.r(C)p.r(C)p.r(G)p.r(U)p.r(A)p.r(G)p.r(U)p.r(A)p.r(G)p.r(U)p.r(C)p.r(G)p.r(U)p.r(C)p.r(G)p.d(T)p.d(A)}$$$RNA1{StrandType:ss}|RNA2{StrandType:as}$` as well.
Result: 62.7

Request: Please do the same for `RNA1{r(C)p.r(U)p.r(A)p.r(C)p.r(G)p.r(A)p.r(C)p.r(G)p.r(A)p.r(C)p.r(U)p.r(A)p.r(C)p.r(U)p.r(A)p.r(C)p.r(G)p.r(G)p.r(G)p.d(T)p.d(T)}|RNA2{r(C)p.r(C)p.r(C)p.r(G)p.r(U)p.r(A)p.r(G)p.r(U)p.r(A)p.r(G)p.r(U)p.r(C)p.r(G)p.r(U)p.r(C)p.r(G)p.r(U)p.r(A)p.r(G)p.d(A)p.d(A)}$$$RNA1{StrandType:ss}|RNA2{StrandType:as}$` as well.
Result: 69

====

# normalised inhibition (eCFP-eYFP dual reporter) per record follows
tested_system: UBE2D3
method_description: reporter assay of Huesken 2005
measurement_context: siRNA
Oligonucleotides are given in HELM: sugar(base)linkage, 5' to 3'; d 2'-deoxyribose, r ribose, m 2'-O-methylribose, p phosphate. ss, as = sense and antisense strand
Please give a number only; it is taken to be in %.

Example entries begin here.
substance	tested_system	endpoint_value
RNA1{r(C)p.r(C)p.r(U)p.r(A)p.r(C)p.r(A)p.r(G)p.r(A)p.r(C)p.r(U)p.r(A)p.r(C)p.r(C)p.r(C)p.r(C)p.r(U)p.r(U)p.r(C)p.r(A)p.d(T)p.d(T)}|RNA2{r(U)p.r(G)p.r(A)p.r(A)p.r(G)p.r(G)p.r(G)p.r(G)p.r(U)p.r(A)p.r(G)p.r(U)p.r(C)p.r(U)p.r(G)p.r(U)p.r(A)p.r(G)p.r(G)p.d(A)p.d(A)}$$$RNA1{StrandType:ss}|RNA2{StrandType:as}$	UBE2D3	99.9
RNA1{r(U)p.r(U)p.r(G)p.r(C)p.r(A)p.r(U)p.r(U)p.r(U)p.r(A)p.r(C)p.r(A)p.r(A)p.r(C)p.r(A)p.r(A)p.r(G)p.r(A)p.r(A)p.r(U)p.d(T)p.d(T)}|RNA2{r(A)p.r(U)p.r(U)p.r(C)p.r(U)p.r(U)p.r(G)p.r(U)p.r(U)p.r(G)p.r(U)p.r(A)p.r(A)p.r(A)p.r(U)p.r(G)p.r(C)p.r(A)p.r(A)p.d(C)p.d(C)}$$$RNA1{StrandType:ss}|RNA2{StrandType:as}$	UBE2D3	68.4

Request: Reported normalised inhibition (eCFP-eYFP dual reporter), substance `RNA1{r(U)p.r(U)p.r(A)p.r(U)p.r(C)p.r(C)p.r(A)p.r(U)p.r(U)p.r(U)p.r(G)p.r(U)p.r(U)p.r(C)p.r(A)p.r(C)p.r(U)p.r(G)p.r(C)p.d(T)p.d(T)}|RNA2{r(G)p.r(C)p.r(A)p.r(G)p.r(U)p.r(G)p.r(A)p.r(A)p.r(C)p.r(A)p.r(A)p.r(A)p.r(U)p.r(G)p.r(G)p.r(A)p.r(U)p.r(A)p.r(A)p.d(A)p.d(A)}$$$RNA1{StrandType:ss}|RNA2{StrandType:as}$` : ____
Result: 23.6

Request: Please do the same for `RNA1{r(U)p.r(C)p.r(U)p.r(C)p.r(G)p.r(A)p.r(U)p.r(A)p.r(U)p.r(U)p.r(C)p.r(U)p.r(A)p.r(A)p.r(G)p.r(A)p.r(U)p.r(C)p.r(A)p.d(T)p.d(T)}|RNA2{r(U)p.r(G)p.r(A)p.r(U)p.r(C)p.r(U)p.r(U)p.r(A)p.r(G)p.r(A)p.r(A)p.r(U)p.r(A)p.r(U)p.r(C)p.r(G)p.r(A)p.r(G)p.r(A)p.d(C)p.d(A)}$$$RNA1{StrandType:ss}|RNA2{StrandType:as}$` as well.
Result: 98.1

Request: Please do the same for `RNA1{r(C)p.r(U)p.r(A)p.r(U)p.r(G)p.r(U)p.r(G)p.r(A)p.r(U)p.r(C)p.r(C)p.r(A)p.r(A)p.r(A)p.r(C)p.r(C)p.r(C)p.r(A)p.r(G)p.d(T)p.d(T)}|RNA2{r(C)p.r(U)p.r(G)p.r(G)p.r(G)p.r(U)p.r(U)p.r(U)p.r(G)p.r(G)p.r(A)p.r(U)p.r(C)p.r(A)p.r(C)p.r(A)p.r(U)p.r(A)p.r(G)p.d(C)p.d(A)}$$$RNA1{StrandType:ss}|RNA2{StrandType:as}$` as well.
Result: 95.8
